All values here come from PubChem BioAssay (NCI).

Tested on: SW-620 colon
Experiment: NCI tumour cell line growth inhibition, 48 h; in the data active = GI50 below about 0.43 µM; inactive = the rest
Tick one outcome: Y = active, N = inactive

[ask] Hi, do you know how COc1cc(C2=NNC(c3ccc(N(C)C)cc3)C2)cc(OC)c1OC (configuration not stated) came out in this test?
[reply] N

[ask] Hi, do you know how N#Cc1c(-c2ccccc2)cc(-c2ccccc2)n(CC(=O)NO)c1=O came out in this test?
[reply] N

====

Test system: NCI-H460 lung
Assay: NCI tumour cell line growth inhibition, 48 h
Endpoint name: TGI

Here's what some known entries look like.
N#CCN1c2ccccc2CCC1Cl (centres undefined) ... > 10 µM
O=C(c1ccccc1)C(C(=O)c1ccccc1)c1nc2ccccc2sc1=O ... > 25 µM
COc1ccc2c(c1)C(=O)c1c-2n(CCCCl)c(=O)c2cc(OC)c(OC)cc12 ... > 100 µM
Cc1cccc(NC(=O)/C=C/c2ccccc2)c1C ... > 100 µM
c1ccc(CSc2nc(N3CCCCC3)c3cn[nH]c3n2)cc1 ... 64.5 µM

TGI recorded for this compound, COc1ccc(/C=C(\C#N)c2nc3ccccc3c(=O)[nH]2)cc1 , is 34.4 µM

TGI recorded for this compound, CCN(CC)CCC(=O)NC1c2ccccc2Oc2c(C)cccc21 (centres undefined) , is > 100 µM

TGI recorded for this compound, CCCC[C@@H](C)/C=C1\CN2CCC[C@H]2[C@@](C)(O)[C@@H]1O , is > 100 µM
